Reference source: patent US5792765A

# System: Staph. 48N
property: MIC (µg/mL)

compound | target or system | MIC [µg/mL]
CNC(=S)NC[C@H]1CN(c2ccc3nc(SC)sc3c2)C(=O)O1 [Example 23] | Staph. 48N | 0.5

(I) CC(=S)NC[C@H]1CN(c2cc3ccc(Cl)cc3s2)C(=O)O1 [Example 43]
(II) CNC(=S)NC[C@H]1CN(c2ccc(-c3cccnc3)s2)C(=O)O1 [Example 14]
(III) CSc1nc2ccc(N3C[C@H](CNC(C)=S)OC3=O)cc2s1 [Example 26]
Ask: Ranking field: MIC; order: falling. Answer by writing out the labels in the requested order.
Result: II, I, III
(II: 1 µg/mL, I: 0.5 µg/mL, III: 0.25 µg/mL)

====

# System: Staph. 48N
# assay text: MIC by serial dilution on Iso-Sensitest Agar
# Type: cell-based
# assay context: 37° C., about 20 hours
property: MIC (µg/mL)

Please review the entries below; each comes with its answer.
smiles repr | target or system | units of measure | reported measurement
CCC(=S)NC[C@H]1CN(c2ccc3ccsc3c2)C(=O)O1 | Staph. 48N | µg/mL | 0.5
CNC(=S)NC[C@H]1CN(c2ccc(-c3ccncc3)s2)C(=O)O1 | Staph. 48N | µg/mL | 1

(1) CC(=S)NC[C@H]1CN(c2ccc(-c3cccnc3)s2)C(=O)O1
(2) CNC(=S)NC[C@H]1CN(c2ccc3c(c2)sc(=O)n3C)C(=O)O1
Ask: Identify the entry with the smaller MIC: 1 or 2 . # reply format: chosen label
Result: 2
(2: 0.25 µg/mL, 1: 0.5 µg/mL)
